// pIC50 lookup, one value per entry
Subject of test: Stx2a A-subunit (Escherichia phage 933W)
Sequence (P09385 23-319 limits assumed): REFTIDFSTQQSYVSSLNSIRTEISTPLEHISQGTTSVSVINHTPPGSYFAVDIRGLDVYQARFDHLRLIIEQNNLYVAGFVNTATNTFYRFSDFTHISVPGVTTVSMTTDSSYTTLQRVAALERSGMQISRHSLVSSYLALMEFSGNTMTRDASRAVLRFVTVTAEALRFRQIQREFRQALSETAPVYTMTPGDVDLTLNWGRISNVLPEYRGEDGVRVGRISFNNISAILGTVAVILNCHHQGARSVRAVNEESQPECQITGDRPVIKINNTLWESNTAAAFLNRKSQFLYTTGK
Method notes: biochemical
Peptide text beside a SMILES is read from it.
API: returns pIC50 as number; meaning -log10 of concentration in mol/L.

# annotated cases, reported pIC50 shown
C[C@H](N)C(=O)N[C@@H](CCCNC(=N)N)C(=O)N[C@@H](CCCNC(=N)N)C(=O)N[C@@H](CCCNC(=N)N)C(=O)N[C@@H](CCCNC(=N)N)C(=O)N[C@@H](C)C(N)=O [AR4A-mono] (H-ARRRRA-NH2) : 5.64
C[C@H](NC(=O)[C@H](CCCNC(=N)N)NC(=O)[C@@H](N)CCCNC(=N)N)C(N)=O [R2A-mono] (H-Arg-Arg-Ala-NH2) : 3.88
N=C(N)NCCC[C@H](NC(=O)[C@H](CCCNC(=N)N)NC(=O)[C@@H](N)CCCNC(=N)N)C(N)=O [R3-mono] (H-Arg-Arg-Arg-NH2) : 5.43
N=C(N)NCCC[C@H](NC(=O)[C@H](CCCNC(=N)N)NC(=O)[C@H](CCCNC(=N)N)NC(=O)[C@@H](N)CCCNC(=N)N)C(N)=O [R4-mono] (H-RRRR-NH2) : 6.41

Next:
Input: Which pIC50 is reported for this molecule? C[C@H](NC(=O)[C@H](CCCNC(=N)N)NC(=O)[C@H](CCCNC(=N)N)NC(=O)[C@@H](N)CCCNC(=N)N)C(N)=O [R3A-mono] (H-RRRA-NH2)
Output: 4.05
